system: HOP-62 NSCLC; assay: NCI tumour cell line growth inhibition, 48 h
Assignment: determine reported TGI for the given molecules.
Please state the figure in µM; there is no need to write the unit.

// "Cc1nn2c(/C=C3/C(=O)Nc4cc(Cl)ccc43)c(-c3ccccc3)nc2s1" : TGI value = 17.9

// "Cc1cc(N(CCC#N)CCC#N)ccc1N=Nc1ccc(Br)cc1" : TGI value = 20.9

// "COc1ccc(-c2nc(-c3nc4ccc(F)cc4[nH]3)c3ccccn23)cc1" : TGI value = 32.3

// "CC1=Cc2ccc(C)cc2C(=O)C1=O" : TGI value = 57

###

Assignment: determine reported TGI for the given molecules.
tested on: HCT-15 colon; assay: NCI tumour cell line growth inhibition, 48 h

// "C#CCn1c(=O)c(C)cn(/C(=C\C(=O)OCC)C(=O)OCC)c1=O" : TGI value = 8.23 µM

// "O=c1c(-c2ccccc2)c(SCCO)n(-c2ccccc2)c(=S)n1-c1ccccc1" : TGI value = > 100 µM

// "OCc1ccc(-c2cscc2-c2ccc(CO)o2)o1" : TGI value = > 100 µM

// "c1ccc2c(c1)SCCCSCCSCCCS2" : TGI value = > 100 µM

// CCc1cc2c(c3c1CCCC3=O)CC1(Cc3ccc(C(=O)OC)cc3C1)C2 (configuration not stated) : TGI value = > 100 µM

// "Cc1c2c(c(C)c3c4c(oc13)CCCC4)C=NCC2" : TGI value = 34.4 µM

// "C=CC[n+]1c2ccccc2n2cc([N+](=O)[O-])ccc21" : TGI value = > 100 µM

// CCCC(=O)N[C@H]1C2C3CC4C5CC(C42)C1(C)C53 (some centres not stated) : TGI value = > 100 µM

// COc1ccc(OC)c(SC(CC(=O)c2ccccc2)c2ccccc2)c1 (configuration not stated) : TGI value = 35.4 µM

// "Cc1c(NC(=S)NC(=O)c2ccc([N+](=O)[O-])cc2)c(=O)n(-c2ccccc2)n1C" : TGI value = > 100 µM

// "Cc1c(-c2ccnc(N)n2)c2c(n1Cc1ccccc1)C(=O)c1ccccc1C2=O" : TGI value = > 100 µM

// CN(C)/N=N/c1nc2c(c(=O)n(C)c(=O)n2C)n1CC(O)CO (configuration not stated) : TGI value = > 100 µM

// "CN(C)c1nc2ccccc2c2c1c1c(n2Cc2ccccc2)-c2ccccc2C1=O" : TGI value = > 100 µM

// Cc1cc(=O)[nH]c(NN2C(Cl)C(=O)C2c2ccc([N+](=O)[O-])cc2)n1 (configuration not stated) : TGI value = 22.5 µM

// "O=C(O)CCNCCCCNCCC(=O)O" : TGI value = > 100 µM

// "Cc1c(C(=O)OCc2ccccc2)[n+](=O)c2cc(Cl)c(Cl)cc2n1[O-]" : TGI value = 34.1 µM

// "NN=C(CC(O)(C(F)(F)Cl)C(F)(F)Cl)CC(O)(C(F)(F)Cl)C(F)(F)Cl" : TGI value = > 10 µM

// COc1cc(C2c3cc4c(cc3C3OC[C@@H]2C3CO)OCO4)cc(OC)c1OC (some centres not stated) : TGI value = 71.5 µM

// CC1CCSC(N(C(=O)N(C)c2ccccc2)c2ccccc2)=N1 (configuration not stated) : TGI value = > 100 µM

// "CC(C)/C(Cl)=N\OC(NC(=O)P(=O)(c1ccccc1)c1ccccc1)(C(F)(F)F)C(F)(F)F" : TGI value = 37.8 µM

// COc1cc2c(cc1O)CC1c3c(cc(O)c(OC)c3-2)CCN1C (configuration not stated) : TGI value = > 100 µM

// "O=C(Oc1ccc(CO[N+](=O)[O-])cc1)c1ccccc1" : TGI value = 0.358 µM

// COc1ccc(C(O)c2cc3c(N)c(C(=O)Nc4cccc(Cl)c4)sc3nc2C)cc1 (configuration not stated) : TGI value = > 49.2 µM

// "Cn1c(=O)oc2nc(-c3ccccc3)cc(C(F)(F)F)c21" : TGI value = > 100 µM

// "COc1ccc(/C(Cl)=C/c2cc(OC)ccc2OC)cc1" : TGI value = > 100 µM

// "c1ccc(/C(=N/Nc2ccncn2)c2ccccn2)cc1" : TGI value = > 100 µM

// "C=C(C)[C@H]1C2=CC(C)=C(O2)[C@@H](O[C@@H]2c3oc(cc3C)[C@H](C(=C)C)[C@H]3C=C(CC[C@H]2C(=C)C)C(=O)O3)[C@H](C(=C)C)CCC2=C[C@H]1OC2=O" : TGI value = > 100 µM

// COc1ccc(C(SC2C(O)C(CO)OC2n2ccc(=O)[nH]c2=O)(c2ccccc2)c2ccc(OC)cc2)cc1 (configuration not stated) : TGI value = 33.3 µM

// "CCCCCCCCNCCC[C@@H](C)[C@H]1CC[C@H]2[C@@H]3[C@H](OCCCN)C[C@H]4C[C@H](OCCCN)CC[C@]4(C)[C@H]3C[C@H](OCCCN)[C@]12C" : TGI value = 16.9 µM

// "C=CCP(=O)(CC=C)C(Cl)Cl" : TGI value = > 100 µM

// "CCOC(=O)N1CCc2cc(OC)c(OC)cc2/C1=C\c1ccc(OC)c(OC)c1" : TGI value = > 100 µM

// "O=C1/C(=C/c2ccccc2)CN(C(=O)CCN2CCCC2)C/C1=C\c1ccccc1" : TGI value = 3.97 µM

// COc1ccc(C(=O)C(CC2C(=O)NC(=O)NC2=O)c2ccc(OC)cc2)cc1 (configuration not stated) : TGI value = > 100 µM

// CC(C)CCCC(C)[C@H]1CCC2[C@@H]3CCC4Nc5c(cnn5-c5ccccc5)C[C@]4(C)C3CC[C@@]21C (some centres not stated) : TGI value = > 100 µM

// O=C1CCC(N2C(=O)c3ccccc3C2=O)C(=O)N1 (configuration not stated) : TGI value = > 100 µM

// "O=C1c2c(O)cccc2-c2nn(CCNCCO)c3ccc(NCCNCCO)c1c23" : TGI value = 70.5 µM

// "C=CCO/N=C(\OC(=O)c1ccc([N+](=O)[O-])cc1)c1ccccc1" : TGI value = > 100 µM
